# System Name: T1, Human NRP-1 His (human, UniProt O14786 22-856)
# T1 construct: Recombinant monomeric protein; Biotinylated in the MSD-SET assay; also called hNRP-1; not shown: His tag
# T1 sequence (O14786 22-856 V179A limits assumed): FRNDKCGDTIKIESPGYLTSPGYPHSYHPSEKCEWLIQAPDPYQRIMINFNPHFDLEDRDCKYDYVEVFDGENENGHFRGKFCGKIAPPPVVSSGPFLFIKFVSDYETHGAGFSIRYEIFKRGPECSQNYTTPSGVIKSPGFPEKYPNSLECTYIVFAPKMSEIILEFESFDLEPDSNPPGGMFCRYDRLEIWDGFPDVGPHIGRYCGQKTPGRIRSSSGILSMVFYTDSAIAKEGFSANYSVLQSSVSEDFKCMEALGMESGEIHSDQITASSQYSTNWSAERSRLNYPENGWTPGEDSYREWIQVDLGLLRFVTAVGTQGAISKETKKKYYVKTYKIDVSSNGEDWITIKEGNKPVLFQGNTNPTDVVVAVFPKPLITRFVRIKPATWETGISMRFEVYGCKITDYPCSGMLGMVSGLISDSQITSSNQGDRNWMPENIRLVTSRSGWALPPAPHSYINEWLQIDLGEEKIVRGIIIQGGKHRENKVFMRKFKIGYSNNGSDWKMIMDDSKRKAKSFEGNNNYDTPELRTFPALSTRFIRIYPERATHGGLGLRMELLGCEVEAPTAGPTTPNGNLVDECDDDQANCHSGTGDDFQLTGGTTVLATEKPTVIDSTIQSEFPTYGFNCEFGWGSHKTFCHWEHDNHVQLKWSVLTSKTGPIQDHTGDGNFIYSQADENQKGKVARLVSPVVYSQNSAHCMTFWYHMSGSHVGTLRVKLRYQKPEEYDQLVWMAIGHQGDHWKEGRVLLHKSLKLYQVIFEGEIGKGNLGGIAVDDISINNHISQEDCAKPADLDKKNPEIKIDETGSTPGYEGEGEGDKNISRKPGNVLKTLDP
# Assay Overview: MSD-SET solution equilibrium titration, Fab
Exercise: for every item that follows, state its recorded Kd.
Show the value, then the unit it is measured in.

Q: // lookup Kd for MAB5 Fab (Fab, V domains shown) VH: QVQLVQSGAEVKKPGASVKVSCKASGYTFTSYYMHWVRQAPGQGLEWMGIINPQGGDTSYAQKFQGRVTMTRDTSTSTVYMELSSLRSEDTAVYYCARDRGMYYASGFGPWGQGTLVTVSS VL: EIVMTQSPGTLSLSPGERATLSCRASQSVSSSYLAWYQQKPGQAPRLLIYGASNRATGIPDRFSGSGSGTDFTLTISRLEPEDFAVYYCQQLSSFPITFGGGTKVEIK
A: 0.28 nM

List the reported Kd of each binder below.
1. MAB10 Fab (Fab, V domains shown) VH: EVQLLESGGGLVQPGGSLRLSCAASGFTFSSVAMVWVRQAPGKGLEWVSAISGSGGATYYADSVKGRFTISRDNSKNTLYLQMNSLRAEDTAVYYCAKDPGYDSSRYYYSNYGMDVWGQGTTVTVSS VL: DIQMTQSPSSLSASVGDRVTITCRASQSISSYLNWYQQKPGKAPKLLIYGASSLQSGVPSRFSGSGSGTDFTLTISSLQPEDFATYYCQQTYSLYTFGGGTKVEIK
2. MAB14 Fab (Fab, V domains shown) VH: QVQLQQWGAGLLKPSETLSLTCAVYGGSFRGYYWEWSRQPPGKGLEWIGEISHSGSTNYNPSLKSRVTISVDTSKNQFSLKLSPVTAADTAVYYCARARPYREPYGMDVWGQGTTVTVSS VL: DIQLTQSPSSVSASVGDRVTITCRASQDISSWLAWYQQKPGKAPKLLIYAASSLQSGVPSRFSGSGSGTDFTLTISSLQPEDFATYYCQQELAFPRTFGGGTKVEIK

A:
0.064 nM
0.28 nM
